- target.or.system: Vascular cell adhesion protein 1 (Homo sapiens)
- Sequence (P19320 whole entry): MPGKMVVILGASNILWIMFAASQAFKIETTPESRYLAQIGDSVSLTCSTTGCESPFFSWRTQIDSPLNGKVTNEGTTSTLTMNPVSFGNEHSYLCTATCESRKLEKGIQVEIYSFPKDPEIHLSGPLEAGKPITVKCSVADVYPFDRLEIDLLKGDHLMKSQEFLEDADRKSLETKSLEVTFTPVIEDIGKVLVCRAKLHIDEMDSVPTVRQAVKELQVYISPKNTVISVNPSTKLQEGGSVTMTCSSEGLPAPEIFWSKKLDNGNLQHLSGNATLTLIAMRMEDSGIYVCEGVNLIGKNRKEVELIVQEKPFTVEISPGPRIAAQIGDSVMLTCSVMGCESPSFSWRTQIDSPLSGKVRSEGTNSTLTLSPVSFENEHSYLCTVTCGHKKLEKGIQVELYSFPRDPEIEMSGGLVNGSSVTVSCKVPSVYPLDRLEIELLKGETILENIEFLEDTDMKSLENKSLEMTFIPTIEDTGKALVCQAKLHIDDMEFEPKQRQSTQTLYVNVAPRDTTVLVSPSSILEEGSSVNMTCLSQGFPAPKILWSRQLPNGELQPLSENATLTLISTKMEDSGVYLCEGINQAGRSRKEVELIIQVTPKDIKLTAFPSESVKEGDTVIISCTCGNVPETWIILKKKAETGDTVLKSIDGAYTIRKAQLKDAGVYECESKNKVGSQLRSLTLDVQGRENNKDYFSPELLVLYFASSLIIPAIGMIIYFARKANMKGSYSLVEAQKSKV
- protocol: In vitro inhibitory potency compared to TNF-alpha induced VCAM-1 in human endothelial cells (ELISA assay)
pIC50: −log10 of the molar value.
reported.metric: pIC50

P. NC(=O)c1cc2c(Oc3ccc(Br)cc3)cncc2s1
Q. CNC(=O)c1cc2c(Oc3ccc(COCCOCCOC)cc3)cncc2s1
Between P and Q , which one shows the smaller pIC50 number? Use the label to indicate which entry you chose.
Q
(Q: 7.52, P: 8.10)

* * *

- protocol: Inhibition of VCAM-1 in human endothelial cells
reported.metric: IC50

Recorded IC50 for CNC(=O)c1cc2c(Oc3ccc(Cl)cc3)cncc2s1 , please?
> 1000 nM

Recorded IC50 for CCOC(=O)c1cccc(Oc2cncc3sc(C(N)=O)cc23)c1 , please?
> 1000 nM

Recorded IC50 for NC(=O)c1cc2c(Oc3ccc(Cl)cc3Br)cncc2s1 , please?
330 nM

Recorded IC50 for CNC(=O)c1cc2c(Oc3ccc(-c4ccccc4)cc3)cncc2s1 , please?
79 nM

Recorded IC50 for CNC(=O)c1cc2c(Oc3ccc(N4CCOCC4)cc3)cncc2s1 , please?
> 1000 nM

Recorded IC50 for NC(=O)c1cc2c(Oc3ccc(C(=O)NCCN4CCOCC4)cc3)cncc2s1 , please?
> 1000 nM

Recorded IC50 for CNC(=O)c1cc2c(Oc3ccc(-n4ccnc4)cc3)cncc2s1 , please?
19 nM

* * *

- target.or.system: UniProt:P19320
- protocol: Inhibition of VCAM-1 in human endothelial cells
reported.metric: IC50

Recorded IC50 for Cc1ccc(Sc2cncc3sc(C(N)=O)cc23)cc1 , please?
> 1000 nM

* * *

- protocol: Inhibition of VCAM-1 in human endothelial cells
reported.metric: IC50

INSERT INTO measurements (compound, readout_value) VALUES
  ('CCOCCOCCOCC(F)(F)c1ccc(Oc2cncc3sc(C(=O)NC)cc23)cc1', '0.17 µM'),
  ('CNC(=O)c1cc2c(Oc3ccc(COC)cc3)cncc2s1', '> 0.024 µM');

Recorded IC50 for CC(C)c1ccc(Oc2cncc3sc(C(N)=O)cc23)cc1 , please?
> 0.1 µM

Recorded IC50 for NC(=O)c1cc2c(Oc3ccc(C(=O)N4CCOCC4)cc3)cncc2s1 , please?
> 1 µM

* * *

- protocol: Inhibition of VCAM-1 in human endothelial cells
pIC50: −log10 of the molar value.
Known pIC50 of a selection of compounds

Here are 5 compounds together with their reported answers.
INSERT INTO assay_data (smi, reported_metric, readout_value) VALUES
  ('CNC(=O)c1cc2c(Oc3ccc(C=CC(=O)NCCc4cnc[nH]4)cc3)cncc2s1', 'pIC50', '< 6.00'),
  ('CNC(=O)c1cc2c(Oc3ccc(COCCOC)cc3)cncc2s1', 'pIC50', '< 6.00'),
  ('CNC(=O)c1cc2c(Oc3ccc(-n4cncn4)cc3)cncc2s1', 'pIC50', 6.62),
  ('CNC(=O)c1cc2c(Oc3ccc(-c4nnn[nH]4)cc3)cncc2s1', 'pIC50', '< 6.00'),
  ('CNC(=O)c1cc2c(Oc3ccc(C(=N)NO)cc3)cncc2s1', 'pIC50', '< 6.00');

Recorded pIC50 for NC(=O)c1cc2c(Oc3ccc(C(=O)N(C(=O)NC4CCCCC4)C4CCCCC4)cc3)cncc2s1 , please?
< 6.00

Recorded pIC50 for NC(=O)c1cc2c(Oc3ccc(N)cc3)cncc2s1 , please?
7.19

Recorded pIC50 for Cc1ccc(Oc2cncc3sc(C(N)=O)cc23)cc1 , please?
4.96
